# Species on record: Rattus norvegicus
# TEST DETAILS: DrugMatrix - Regimen: Daily Repeat
# Format: toxicity, organism-based, Sprague-Dawley
# Set-up: regimen Daily Repeat, gender Male, age 6-8 weeks
# APPLIED CONDITIONS: in vivo, po, 0 mg/kg, 72 h, tissue Plasma, route oral GAVAGE, dose level Control, time 3 day, vehicle .5 % CMC
Quick list: CHOLESTEROL per entry.
All answers are understood in mg/dL, so give the number only.

Example results:
Consider the compound `C#C[C@]1(O)CC[C@H]2[C@@H]3CCC4=CC(=O)CC[C@]4(C)[C@H]3CC[C@@]21C` and give its measured CHOLESTEROL.
71

Similarly, NC(=O)N1c2ccccc2CC(=O)c2ccccc21 [OXCARBAZEPINE] ?
71.17

Then this compound: `C[C@H]1[C@H](NC(=O)/C(=N\OC(C)(C)C(=O)O)c2csc(N)n2)C(=O)N1S(=O)(=O)O`
74

Next compound up: CCn1cc(C(=O)O)c(=O)c2cc(F)c(N3CCNC(C)C3)c(F)c21 (configuration not stated)
75.17

Subsequent entry: `CN1C(=O)CN=C(c2ccccc2)c2cc([N+](=O)[O-])ccc21`
71.17

Here is another compound to look at.
Which measured CHOLESTEROL value corresponds to `CCOc1nc2cccc(C(=O)O)c2n1Cc1ccc(-c2ccccc2-c2nnn[nH]2)cc1` ?
72

---

# Species: Rattus norvegicus
# TEST DETAILS: DrugMatrix - Regimen: Daily Repeat
# Assay type: toxicity, organism-based, Sprague-Dawley
# Design: regimen Daily Repeat, gender Male, age 6-8 weeks
# APPLIED CONDITIONS: in vivo, po, 0 mg/kg, 120 h, tissue Blood, route oral GAVAGE, dose level Control, time 5 day, vehicle .5 % CMC
Label scheme for NEUTROPHIL: lower than 10% is n, 10% and above is y.

Example results:
Given the entry `C[C@]12CC[C@@H]3c4ccc(O)cc4CC[C@H]3[C@@H]1C[C@@H](O)[C@@H]2O` , answer whether its NEUTROPHIL meets or surpasses 10%.
n

Also need `CN(C)CCN(Cc1cccs1)c1ccccn1` , thanks.
y

Field entry: CCCNC(=O)NS(=O)(=O)c1ccc(Cl)cc1 [CHLORPROPAMIDE]
y

Item: CCC1=C(C)CN(C(=O)NCCc2ccc(S(=O)(=O)NC(=O)N[C@H]3CC[C@H](C)CC3)cc2)C1=O [GLIMEPIRIDE]
n

Please answer likewise for CCn1cc(C(=O)O)c(=O)c2cc(F)c(N3CCNC(C)C3)c(F)c21 (stereo not drawn)
y

# repeat for `CN1CCN(C2=Nc3cc(Cl)ccc3Nc3ccccc32)CC1`
y

Others:
Dear colleague, could you confirm whether `C[C@H]1[C@H](NC(=O)/C(=N\OC(C)(C)C(=O)O)c2csc(N)n2)C(=O)N1S(=O)(=O)O` has NEUTROPHIL at or above 10%?
n

Could you do the same for `CN1C(=O)CN=C(c2ccccc2)c2cc([N+](=O)[O-])ccc21` , please?
y

What do we get for `COc1cc(OC)c(C(=O)CCCN2CCCC2)c(OC)c1` ?
n

Next molecule: CN(C)C(=O)C(CCN1CCC(O)(c2ccc(Cl)cc2)CC1)(c1ccccc1)c1ccccc1 [LOPERAMIDE]
n

What about `CCCCC1=NC2(CCCC2)C(=O)N1Cc1ccc(-c2ccccc2-c2nnn[nH]2)cc1` ?
y
